studySystem: Metabotropic glutamate receptor 2 (Homo sapiens, UniProt Q14416)
Sequence (Q14416 whole entry): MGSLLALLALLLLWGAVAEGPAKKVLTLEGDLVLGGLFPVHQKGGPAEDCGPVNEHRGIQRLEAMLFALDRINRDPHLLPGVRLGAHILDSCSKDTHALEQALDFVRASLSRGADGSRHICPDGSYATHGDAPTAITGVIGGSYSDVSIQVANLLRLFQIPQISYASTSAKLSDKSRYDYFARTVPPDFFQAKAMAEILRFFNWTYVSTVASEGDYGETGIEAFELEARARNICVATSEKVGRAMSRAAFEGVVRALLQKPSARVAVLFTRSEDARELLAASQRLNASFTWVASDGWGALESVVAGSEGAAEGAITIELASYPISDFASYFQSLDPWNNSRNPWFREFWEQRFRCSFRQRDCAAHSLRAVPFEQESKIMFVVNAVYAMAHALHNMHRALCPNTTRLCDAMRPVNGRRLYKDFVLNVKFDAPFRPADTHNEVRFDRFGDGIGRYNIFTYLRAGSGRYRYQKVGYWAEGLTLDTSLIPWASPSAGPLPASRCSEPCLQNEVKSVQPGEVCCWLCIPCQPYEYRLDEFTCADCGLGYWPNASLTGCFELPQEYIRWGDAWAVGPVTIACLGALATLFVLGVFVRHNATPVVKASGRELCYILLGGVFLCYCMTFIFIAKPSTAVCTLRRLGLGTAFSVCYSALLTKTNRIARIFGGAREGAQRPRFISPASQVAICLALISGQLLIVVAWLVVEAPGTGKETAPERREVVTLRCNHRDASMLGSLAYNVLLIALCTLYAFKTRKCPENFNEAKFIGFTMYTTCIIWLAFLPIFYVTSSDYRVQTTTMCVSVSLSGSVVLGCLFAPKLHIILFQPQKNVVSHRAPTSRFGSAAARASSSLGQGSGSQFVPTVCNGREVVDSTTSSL
method: Agonist activity at wild type human recombinant mGlu2 receptor expressed in AV12 cells assessed as stimulation of Ca2+ mobilization after 1 hr by FLIPR assay
Format: functional, cell-based
measuredMetric: EC50 (nM)

querysmiles=N[C@@]1(C(=O)O)C[C@@H](Sc2nc[nH]n2)[C@H]2[C@H](C(=O)O)[C@H]21 measuredmetric=EC50 value=20.1

###

method: Cmax in Sprague-Dawley rat at 3 mg/kg, ip
Type: ADME, organism-based
Parameters: dose 3 mg/kg, route intraperitoneal
testSettings: in vivo
measuredMetric: Cmax

querysmiles=N[C@@]1(C(=O)O)C[C@@H](Sc2nc[nH]n2)[C@H]2[C@H](C(=O)O)[C@H]21 measuredmetric=Cmax value="8.05 µM"
